# assay_procedure: Binding affinity to human recombinant Nav1.7 by radioligand binding assay
Exercise: state measured Kd for each of the compounds provided.
# output: bare number, implied unit µM

Kindly indicate its recorded Kd. Item: Cc1nn([C@@H]2CCN([C@H](C)c3cc(Cl)cc(Cl)c3)C2)c2cc(F)c(C(=O)NS(=O)(=O)C3CC3)cc12
0.022

Kindly indicate its recorded Kd. Item: CS(=O)(=O)NC(=O)c1cc(C2CC2)c(OCC2CCN(Cc3cc(C(F)(F)F)ccc3Cl)CC2)cc1F
0.0035
